# TARGET_OR_TEST_SYSTEM: MERTK (UniProt Q12866)
# Sequence (Q12866 whole entry, looked up): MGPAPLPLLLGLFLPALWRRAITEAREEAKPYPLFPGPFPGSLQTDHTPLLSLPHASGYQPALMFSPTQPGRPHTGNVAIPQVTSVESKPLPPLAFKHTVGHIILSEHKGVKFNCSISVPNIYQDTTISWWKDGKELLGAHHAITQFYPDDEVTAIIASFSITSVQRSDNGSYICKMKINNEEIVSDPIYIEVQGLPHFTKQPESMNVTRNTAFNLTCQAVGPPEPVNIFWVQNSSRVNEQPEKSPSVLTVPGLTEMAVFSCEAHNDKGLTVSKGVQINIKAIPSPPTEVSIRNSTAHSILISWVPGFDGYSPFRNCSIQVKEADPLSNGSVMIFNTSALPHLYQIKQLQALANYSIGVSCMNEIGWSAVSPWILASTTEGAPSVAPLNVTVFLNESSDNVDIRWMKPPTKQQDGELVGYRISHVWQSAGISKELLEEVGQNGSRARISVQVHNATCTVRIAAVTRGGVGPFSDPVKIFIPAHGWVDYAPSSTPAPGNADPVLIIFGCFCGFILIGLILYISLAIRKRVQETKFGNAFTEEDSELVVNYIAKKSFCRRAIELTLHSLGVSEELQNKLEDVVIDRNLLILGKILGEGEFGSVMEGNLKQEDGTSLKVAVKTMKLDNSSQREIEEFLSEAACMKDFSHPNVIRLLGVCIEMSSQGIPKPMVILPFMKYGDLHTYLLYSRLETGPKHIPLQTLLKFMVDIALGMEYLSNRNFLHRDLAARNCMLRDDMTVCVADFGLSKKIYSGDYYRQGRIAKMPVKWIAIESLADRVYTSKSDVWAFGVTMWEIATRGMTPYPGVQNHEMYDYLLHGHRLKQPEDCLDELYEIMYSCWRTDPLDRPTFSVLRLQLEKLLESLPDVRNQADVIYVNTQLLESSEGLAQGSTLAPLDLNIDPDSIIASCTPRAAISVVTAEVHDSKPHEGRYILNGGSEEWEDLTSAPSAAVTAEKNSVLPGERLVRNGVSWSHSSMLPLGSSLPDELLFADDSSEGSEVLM
# ASSAY_NOTES: phosphorylation enrichment, bacterial display (enrichment ratio); higher = better substrate or ligand; peptides without Tyr show the background;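 note: 11-residue human phosphosite peptides and single-mutation variants displayed on the E. coli surface, counted by deep sequencing, each peptide's frequency after selection divided by its frequency in the unselected input library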;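 note: frequency after pTyr selection over input frequency; kinase dosed for 20-30% of maximal phosphorylation in three min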
# if value of phosphorylation enrichment reaches 0.5, tag label 1; if it stays below, tag label 0

- SEQUENCE_INPUT: "ATDLAYFLVRK [ASL_Y375_YF]"
  CAT: "label 1"
- SEQUENCE_INPUT: "RHPEVYHHLGI [NVL_Y290_V295I]"
  CAT: "label 1"
- SEQUENCE_INPUT: "RPGSGYTNIMQ [PKLR_Y564_R569Q]"
  CAT: "label 1"

Decide: is the reported value of phosphorylation enrichment for QYNMQYSSSAA [ERBB2IP_Y981_I979M] equal to or greater than 0.5?
label 1

Decide: is the reported value of phosphorylation enrichment for LEAVSYSSPYA [RNLS_Y190_R193P] equal to or greater than 0.5?
label 1

Decide: is the reported value of phosphorylation enrichment for SVDRDYVLKSA [HTATIP2_Y111_R106S] equal to or greater than 0.5?
label 0

Decide: is the reported value of phosphorylation enrichment for AKFPFYEKNKK [FOXL2_Y91] equal to or greater than 0.5?
label 0

Decide: is the reported value of phosphorylation enrichment for GKSHIYFWTLD [EML2_Y230_E235D] equal to or greater than 0.5?
label 1

Decide: is the reported value of phosphorylation enrichment for YQNGMYGLHQD [SGSH_Y89_H84Y] equal to or greater than 0.5?
label 1

Decide: is the reported value of phosphorylation enrichment for DPGVSYHTREE [PDHA1_Y301_R302H] equal to or greater than 0.5?
label 0

Decide: is the reported value of phosphorylation enrichment for ADFFDYGHGLS [KHDRBS3_Y304_YF] equal to or greater than 0.5?
label 0

Decide: is the reported value of phosphorylation enrichment for HITQVYGFYDE [PPP2CA_Y127_Q122H] equal to or greater than 0.5?
label 1

Numbers sourced from the supplement of paper PMC10065799.
